experiment: IUF_NPC2-5_cytotoxicity_72hr: Cytotoxicity Assessment at 72 hours in the Leibniz Research Institute for Environmental Medicine (IUF) Neural Progenitor Cell Migration and Differentiation Assay for Cytotoxicity (NPC2-5) (AID 2284306);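 further: LDH release into supernatant measured by resorufin fluorescence marking membrane damage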
Records with an inconclusive call do not appear. Calls of active or inactive are those of the source. How the source made its calls: active means hit-call score of the fitted dose curve at least 0.9, where 1 is the maximum; inconclusive means response in the unintended direction; inactive means score below 0.9.
Measure: outcome

Please review the entries below; each comes with its answer.
Compound | outcome
CC(C)(C)c1ccccc1OP(=O)(Oc1ccccc1)Oc1ccccc1 | inactive
O=P(Oc1ccccc1)(Oc1ccccc1)Oc1ccccc1 | inactive
O=C(O)C(F)(OC(F)(F)C(F)(F)C(F)(F)F)C(F)(F)F (stereo not given) | inactive
CO/N=C(/C(=O)OC)c1ccccc1COc1ccccc1C | inactive

Lab note: next compound to report on.
**Query** Report measured outcome; entry is CCCCC(CC)COP(=O)(Oc1ccccc1)Oc1ccccc1 (stereo not given)
**Result** inactive
